- Species: Rattus norvegicus
- assay-info: Compound was evaluated for the amount of protein solubilized, expressed as percentage weight of freeze-dried mitochondria (20 mg) of rat liver
- Format: functional, organism-based

compound: O=C(CC[S+]([O-])CCC(F)(F)C(F)(F)C(F)(F)C(F)(F)C(F)(F)C(F)(F)F)NC(CO)(CO)CO (stereo unspecified)
Weight, %: 30.3
--
compound: CCCCCCCCCC[S+]([O-])CCC(=O)NC(CO)(CO)CO (stereo unspecified)
Weight, %: 71
--
compound: CC(C)(C)CC(C)(C)c1ccc(OCCO)cc1
Weight, %: 74.9
--
compound: CCCCCCCC[S+]([O-])CCC(=O)NC(CO)(CO)CO (stereo unspecified)
Weight, %: 69.8
--
compound: CCCCCCCCCCCC[S+]([O-])CCC(=O)NC(CO)(CO)CO (stereo unspecified)
Weight, %: 65.6
--
compound: CCCCCCCCCCCCCCCC[S+]([O-])CCC(=O)NC(CO)(CO)CO (stereo unspecified)
Weight, %: 58.6

====

- assay-info: Water solubility was evaluated
- Assay type: ADME
- details: read-out: Ws
Recorded solubility, one value per entry.

compound: CCCCCCCC[S+]([O-])CCC(=O)NC(CO)(CO)CO (centres undefined)
solubility: > 10000 µg/mL
--
compound: O=C(CC[S+]([O-])CCC(F)(F)C(F)(F)C(F)(F)C(F)(F)C(F)(F)C(F)(F)C(F)(F)C(F)(F)F)NC(CO)(CO)COC1O[C@H](CO)[C@H](O)[C@H](O)[C@H]1O (some centres undefined)
solubility: > 1500 µg/mL
--
compound: O=C(CC[S+]([O-])CCC(F)(F)C(F)(F)C(F)(F)C(F)(F)C(F)(F)C(F)(F)F)NC(CO)(CO)CO (centres undefined)
solubility: 1200 µg/mL
--
compound: CCCCCCCCCC[S+]([O-])CCC(=O)NC(CO)(CO)CO (centres undefined)
solubility: > 10000 µg/mL
--
compound: CCCCCCCCCCCCCCCC[S+]([O-])CCC(=O)NC(CO)(CO)CO (centres undefined)
solubility: 85 µg/mL
--
compound: CCCCCCCCCCCC[S+]([O-])CCC(=O)NC(CO)(CO)CO (centres undefined)
solubility: > 6000 µg/mL
--
compound: O=C(CC[S+]([O-])CCC(F)(F)C(F)(F)C(F)(F)C(F)(F)C(F)(F)C(F)(F)F)NC(CO[C@H]1O[C@@H](CO)[C@@H](O)[C@@H](O)[C@@H]1O)(CO[C@@H]1O[C@H](CO)[C@H](O)[C@H](O)[C@H]1O)CO[C@@H]1O[C@H](CO)[C@H](O)[C@H](O)[C@H]1O (some centres undefined)
solubility: > 10000 µg/mL
--
compound: CCCCCCCCCCCC[S+]([O-])CCC(=O)NC(CO)(CO)CO[C@@H]1O[C@H](CO)[C@H](O)[C@H](O)[C@H]1O (some centres undefined)
solubility: > 10000 µg/mL
--
compound: O=C(CC[S+]([O-])CCC(F)(F)C(F)(F)C(F)(F)C(F)(F)C(F)(F)C(F)(F)C(F)(F)C(F)(F)F)NC(CO)(CO)CO (centres undefined)
solubility: 25 µg/mL

====

- Species on record: Rattus norvegicus
- assay-info: Compound was evaluated for the amount of protein solubilized, expressed as percentage weight of freeze-dried microsomes (20 mg) of rat liver
- Assay type: functional

compound: CCCCCCCCCC[S+]([O-])CCC(=O)NC(CO)(CO)CO (stereo unspecified)
Weight: 68.9%

compound: CCCCCCCCCCCCCCCC[S+]([O-])CCC(=O)NC(CO)(CO)CO (stereo unspecified)
Weight: 58.4%

compound: CCCCCCCCCCCC[S+]([O-])CCC(=O)NC(CO)(CO)CO (stereo unspecified)
Weight: 62.5%

compound: O=C(CC[S+]([O-])CCC(F)(F)C(F)(F)C(F)(F)C(F)(F)C(F)(F)C(F)(F)F)NC(CO)(CO)CO (stereo unspecified)
Weight: 32.6%

compound: CC(C)(C)CC(C)(C)c1ccc(OCCO)cc1
Weight: 76.2%

compound: CCCCCCCC[S+]([O-])CCC(=O)NC(CO)(CO)CO (stereo unspecified)
Weight: 71%
